Here's a roundup of IC50 values tested on Vascular endothelial growth factor receptor 2 (Homo sapiens), taken from various published works.

# input Given CCS(=O)(=O)Nc1ccc(F)c(C(=O)c2c[nH]c3ncc(C)cc23)c1F , report its IC50 on Vascular endothelial growth factor receptor 2 (Homo sapiens).
# output ≤ 10 µM

# input Given CCOC(=O)c1cnc2c(c1)C(=CNc1ccc3cn[nH]c3c1)C(=O)N2 , report its IC50 on Vascular endothelial growth factor receptor 2 (Homo sapiens).
# output 0.01 to 0.1 µM

# input Given CCCC(=O)Nc1ccc(F)c(Cc2c[nH]c3ncc(-c4cccnc4)cc23)c1F , report its IC50 on Vascular endothelial growth factor receptor 2 (Homo sapiens).
# output ≤ 10 µM

# input Given Fc1cc(OCc2nc3ccccc3[nH]2)c(F)cc1Cc1c[nH]c2ncc(Cl)cc12 , report its IC50 on Vascular endothelial growth factor receptor 2 (Homo sapiens).
# output ≤ 10 µM

# input Given Cn1cc(-c2ccnc3cc(-c4ccc(N5CCOCC5)cc4)oc23)cn1 , report its IC50 on Vascular endothelial growth factor receptor 2 (Homo sapiens).
# output 0.3 to 3 µM

# input Given FC(F)(F)c1cccc(Nc2nc3c(-c4cccnc4)nccn3n2)c1 , report its IC50 on Vascular endothelial growth factor receptor 2 (Homo sapiens).
# output 3 to 50 µM
